# target.system: UniProt Q9Y210
# Sequence (Q9Y210 whole entry): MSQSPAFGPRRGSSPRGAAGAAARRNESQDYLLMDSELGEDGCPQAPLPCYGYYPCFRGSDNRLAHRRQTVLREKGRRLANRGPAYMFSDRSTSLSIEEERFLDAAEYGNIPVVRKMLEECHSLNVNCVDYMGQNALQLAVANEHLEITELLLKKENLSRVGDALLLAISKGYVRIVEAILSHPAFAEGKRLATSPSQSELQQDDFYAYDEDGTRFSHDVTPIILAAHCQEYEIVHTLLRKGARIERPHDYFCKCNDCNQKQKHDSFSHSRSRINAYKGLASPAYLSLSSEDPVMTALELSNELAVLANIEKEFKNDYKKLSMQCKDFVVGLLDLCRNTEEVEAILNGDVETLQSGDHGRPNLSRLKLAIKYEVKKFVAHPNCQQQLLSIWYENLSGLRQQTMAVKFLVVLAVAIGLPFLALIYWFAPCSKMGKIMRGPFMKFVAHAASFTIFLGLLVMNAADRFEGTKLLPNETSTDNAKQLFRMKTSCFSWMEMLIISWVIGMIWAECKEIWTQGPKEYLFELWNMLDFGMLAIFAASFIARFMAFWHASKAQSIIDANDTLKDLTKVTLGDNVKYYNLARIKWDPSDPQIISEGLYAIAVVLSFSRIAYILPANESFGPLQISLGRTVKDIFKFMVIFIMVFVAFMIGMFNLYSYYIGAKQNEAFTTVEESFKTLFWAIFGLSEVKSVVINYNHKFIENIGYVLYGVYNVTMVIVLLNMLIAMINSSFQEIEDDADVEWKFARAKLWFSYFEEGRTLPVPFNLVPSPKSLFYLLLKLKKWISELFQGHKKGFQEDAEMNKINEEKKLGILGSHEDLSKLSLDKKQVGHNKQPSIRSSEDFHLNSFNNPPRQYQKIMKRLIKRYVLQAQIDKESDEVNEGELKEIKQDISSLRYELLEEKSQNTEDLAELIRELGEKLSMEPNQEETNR
# measurement.protocol: TRPC6 calcium flux assay (FLIPR, OAG-stimulated calcium influx)
# details: HEK293 cells stably transfected with human TRPC6, read-out: hTRPC6 Potency
Note to self: IC50 under 40 nM means true, ties and anything higher get false.

NC(=O)C1CCN(C(=O)Cn2c(N3CC[C@@H](F)[C@H](N)C3)nc3cc(F)c(F)cc32)CC1 [Example 532]	false
N#Cc1ccc(Cn2c(N3CC[C@@H]4OCCN[C@H]4C3)nc3ccccc32)nc1 [Example 132]	false
N[C@@H]1CN(c2nc3cc(F)c(F)cc3n2CC(=O)N2CCN(c3ncccn3)CC2)CC[C@H]1F [Example 624]	false
C[C@@H](c1ccccc1Cl)n1c(N2CC[C@@H](F)[C@H](N)C2)nc2cc(F)c(F)cc21 [Example 325]	false
CN(C)C(=O)Cn1c(N2CC[C@@H](F)[C@H](N)C2)nc2ccc(C(F)(F)F)cc21 [Example 563]	true
N#Cc1ccc2c(c1)nc(N1CC[C@@H](F)[C@H](N)C1)n2Cc1ncc(F)cn1 [Example 197]	false
CNC(=O)C1CCN(C(=O)Cn2c(N3CC[C@@H](F)[C@H](N)C3)nc3cc(F)c(F)cc32)CC1 [Example 534]	false

Challenge: Record N#Cc1ccc(Cn2c(N3CCC(F)(F)[C@H](N)C3)nc3c(Cl)cccc32)nc1 [Example 10] : is its IC50 strictly below 40 nM?
Response given: true
